- Measurement notes: gradient 5% acetonitrile 3 min, to 50% in 2 min, to 85% in 15 min, held 3 min, 100 µL/min
- Condition set: column: Zorbax Extend-C18 2.1 x 50 mm; eluents: water / acetonitrile, 0.1% formic acid
Measured attribute: RP-LC retention time (s)

>>> observed_result("O=C(Nc1ccccc1Br)N[C@@H]1CCN(c2ccc(C(F)(F)F)cn2)C1")
937
>>> observed_result("Cc1ccn2cc(-c3ccc(NS(=O)(=O)c4ccc(-c5csc(C)n5)s4)cc3)nc2n1")
679
>>> observed_result("CC(NC(=O)Cn1nc(Cc2cccnc2)c2ccccc2c1=O)c1ccc2c(c1)OCCO2 (centres undefined)")
632
>>> observed_result("Cc1ccccc1C1CCCN1C(=O)c1cnn2cc(Br)cnc12 (centres undefined)")
869
>>> observed_result("Cc1ccccc1CNC(=O)CN1C(=O)CCCc2cc(S(=O)(=O)N3CCCC3)ccc21")
916

I. COc1ccc(NC(=O)N2CCC(n3cnc4cc(F)ccc4c3=O)CC2)c(OC)c1
II. Clc1cccc(-c2noc(Cc3nc(-c4cccs4)cs3)n2)c1
Q) In the pair I and II , the larger recorded RP-LC retention time belongs to which? Reply with the label of the item you choose.
A) II

Data origin, for the record: the METLIN SMRT retention time set (Domingo-Almenara et al. 2019)
